Where do the numbers come from? From ChEMBL document CHEMBL1201862.

Test system: M19-MEL
Assay: NCI tumour cell line growth inhibition, 48 h
Calls of active or inactive are those of the source. No stated cut-off is given here; in the data, active = GI50 up to about 1.1 µM and inactive = higher.
Use one of these outcomes when replying: Yes = active, No = inactive

>  <compound>
COC(=O)NC1C(C)OC(OC2C/C=C(/C)C3C=CC4C(OC5CC(OC6CCC(OC7CC(O)C(OC8CCC(O)C(C)O8)C(C)O7)C(C)O6)C(OC(C)=O)C(C)O5)C(C)CC(C)C4C3(C)/C(O)=C3/C(=O)OC4(CC(C=O)=CC(O)C4/C=C\2C)C3=O)CC1(C)[N+](=O)[O-] (stereo not drawn)

>  <class.name>
Yes

$$$$
>  <compound>
COc1nc(NC2OCC(OC(C)=O)C(OC(C)=O)C2OC(C)=O)c(/N=C\C=N\c2c(NC3OCC(OC(C)=O)C(OC(C)=O)C3OC(C)=O)nc(OC)n(C)c2=O)c(=O)n1C (stereo not drawn)

>  <class.name>
No

$$$$
>  <compound>
C1OCC2S[C@@H]3COCO[C@@H]3C2O1 (stereo partly drawn)

>  <class.name>
No

$$$$
>  <compound>
Cc1ccc(C2NC(=O)c3ccccc3N2)s1 (stereo not drawn)

>  <class.name>
No

$$$$
>  <compound>
C1CCC(OCc2nnn3c2CCC3)OC1 (stereo not drawn)

>  <class.name>
No

$$$$

Task: Fill in: this test's call for Cc1cccc(C)c1NC(=O)CCCC(=O)C1/C(=N/NC(=O)CC#N)CCC/C1=N\NC(=O)CC#N (stereo not drawn) is ___
Output: No

Task: Fill in: this test's call for N#CCC(=O)N/N=C1/C(=O)N(c2ccc(Cl)cc2)C(=O)C(=O)C1c1nc2ccccc2s1 (stereo not drawn) is ___
Output: No

Task: Fill in: this test's call for `Cc1cc2c(Br)cc(Br)c(O)c2nc1C(=O)c1ccccc1` is ___
Output: No

Task: Fill in: this test's call for `O=C(O)CCC(=O)N1C/C(=C\c2ccccc2)C(=O)/C(=C/c2ccccc2)C1` is ___
Output: No

Task: Fill in: this test's call for `COc1ccc(C2=Nc3ccccc3NC(=O)C2)cc1` is ___
Output: No

###

System: 786-0
Test: NCI tumour cell line growth inhibition, 48 h
Calls of active or inactive are those of the source. Rule as the data show it: active = GI50 up to about 1.1 µM and inactive = higher.
reported.property: GI50

Here's what some known entries look like.
>  <molecule>
Brc1ccc(-c2ccc(-c3ccc(Br)s3)s2)s1

>  <GI50>
> 100 µM (inactive)

$$$$
>  <molecule>
O=C(C(Cl)=C(N1CCCCC1)N1CCCCC1)C(Cl)Cl

>  <GI50>
> 100 µM (inactive)

$$$$
>  <molecule>
COc1ccccc1NC(=S)N/N=C/c1ccccn1

>  <GI50>
0.157 µM (active)

$$$$
>  <molecule>
COc1cc(C2c3cc(OC)c(OC)c(O)c3C(=O)C3CCC(=O)N32)cc(OC)c1OC (stereo not given)

>  <GI50>
> 100 µM (inactive)

$$$$
>  <molecule>
Cc1ccc(C2(c3ccc(F)cc3)OC(=O)c3ccccc32)c(O)c1 (stereo not given)

>  <GI50>
15.4 µM (inactive)

$$$$

Task: Which GI50 value is on record for `CC(C)(CN1CCCCC1)C(/C=C/c1ccc(Cl)c(Cl)c1)=N\NC(=O)N/N=C(/C=C/c1ccc(Cl)c(Cl)c1)C(C)(C)CN1CCCCC1` ?
Output: 1.48 µM (inactive)

Task: Which GI50 value is on record for CC(O)C1(CNc2cc(Cl)nc(N)n2)CCCC1 (stereo not given) ?
Output: > 100 µM (inactive)

Task: Which GI50 value is on record for `O=C(/C=C/c1ccccc1)c1ccc(Cl)cc1Cl` ?
Output: 17.9 µM (inactive)

Task: Which GI50 value is on record for COc1cccc(C2CC(C)=Nc3c(ccc4c3C(=O)c3ccccc3C4=O)N2)c1O (stereo not given) ?
Output: > 100 µM (inactive)

Task: Which GI50 value is on record for `C[C@]12CC[C@H]3[C@@H](CCC4=CC(=O)C=C[C@@]43OC(=O)C(F)(F)F)[C@@H]1CCC2=O` ?
Output: > 45.6 µM (inactive)

###

Tested on: MDA-MB-231
Test: NCI tumour cell line growth inhibition, 48 h
The source made the active and inactive calls. Cut-off read from the data, not from the text of the source: active = GI50 up to about 1.1 µM and inactive = higher.
We begin with a simple list: items and their reported GI50.

Here's what some known entries look like.
>  <molecule>
CC(=O)Oc1cccc2c(/C=N/NC(N)=S)ncc(C)c12

>  <system>
MDA-MB-231

>  <GI50>
2.58 µM (inactive)

$$$$
>  <molecule>
C/C=C(/C)C(=O)O[C@H]1C(C)=C[C@]23C(=O)[C@@H](C=C(COC(C)=O)[C@@H](O)[C@]12O)[C@H]1[C@@H](C[C@H]3C)[C@@]1(C)OC(=O)/C(C)=C\C

>  <system>
MDA-MB-231

>  <GI50>
3.03 µM (inactive)

$$$$
>  <molecule>
O=C(c1ccco1)N(C(=S)OCCOc1ccccc1)c1ccccc1

>  <system>
MDA-MB-231

>  <GI50>
16.4 µM (inactive)

$$$$
>  <molecule>
COc1cc(C2c3cc(OC)c(OC)c(O)c3C(=O)C3CCC(=O)N32)cc(OC)c1OC (centres undefined)

>  <system>
MDA-MB-231

>  <GI50>
44.1 µM (inactive)

$$$$
>  <molecule>
CCOC(=O)/C=C(/C(=O)OCC)n1ccc(=O)[nH]c1=O

>  <system>
MDA-MB-231

>  <GI50>
10.8 µM (inactive)

$$$$
>  <molecule>
OC1CSCCSCCCSCCSC1

>  <system>
MDA-MB-231

>  <GI50>
> 100 µM (inactive)

$$$$
>  <molecule>
COC(=O)c1ccc(/C=C(\c2ccc([N+](=O)[O-])o2)S(=O)(=O)c2ccc(NC(C)=O)cc2)o1

>  <system>
MDA-MB-231

>  <GI50>
2.01 µM (inactive)

$$$$
>  <molecule>
Cc1c(CCCl)c(N=P(c2ccccc2)(c2ccccc2)c2ccccc2)n2c(nc3ccccc32)c1C#N

>  <system>
MDA-MB-231

>  <GI50>
> 10 µM (inactive)

$$$$

Task: Field: GI50 (MDA-MB-231). Entry: `Cc1ccc(/C=c2\cc3oc(=O)c4cccc(c4-3)c2=O)cc1`
Output: > 100 µM (inactive)

###

Test system: SNB-19
Assay: NCI tumour cell line growth inhibition, 48 h
The source made the active and inactive calls. Cut-off read from the data, not from the text of the source: active = GI50 up to about 1.1 µM and inactive = higher.
We begin with a simple list: items and their reported GI50.

Here's what some known entries look like.
>  <compound>
CC1=Nc2nc3ccccc3n2C(C)(C)C1

>  <reported.property>
GI50

>  <result>
> 100 µM (inactive)

$$$$
>  <compound>
COC(=O)[C@@H](NC(=O)N(Cc1ccccc1)C[C@H](CC(C)C)NC(=O)[C@@H](NC(=O)OC(C)(C)C)C(C)C)C(C)C

>  <reported.property>
GI50

>  <result>
> 100 µM (inactive)

$$$$
>  <compound>
Cc1ccc(/C=c2\cc3oc(=O)c4cccc(c4-3)c2=O)cc1

>  <reported.property>
GI50

>  <result>
> 100 µM (inactive)

$$$$
>  <compound>
CC(C)NCC(O)c1ccc(O)c2ncccc12 (stereo not given)

>  <reported.property>
GI50

>  <result>
> 100 µM (inactive)

$$$$
>  <compound>
OCC1NC(COC2OC(CO)C(O)C(O)C2O)C(O)C(O)C1O (stereo not given)

>  <reported.property>
GI50

>  <result>
> 100 µM (inactive)

$$$$

Task: Field: GI50 (SNB-19). Entry: `COc1ccc(C2=Nc3ccccc3NC(=O)C2)cc1`
Output: 28.2 µM (inactive)

Task: Field: GI50 (SNB-19). Entry: CC1=NN(c2cccc(S(=O)(=O)O)c2)C2(C1)C(Cl)C(=O)N2c1nc2ccccc2s1 (stereo not given)
Output: 11.2 µM (inactive)

Task: Field: GI50 (SNB-19). Entry: `O=C(CSCC(=O)N/N=C\c1cccc([N+](=O)[O-])c1)N/N=C\c1cccc([N+](=O)[O-])c1`
Output: 18 µM (inactive)

Task: Field: GI50 (SNB-19). Entry: `CC(=O)c1c(O)c(C)c(O)c(Cc2c(O)c3c(c(C(=O)/C=C/c4ccccc4)c2O)OC(C)(C)C=C3)c1O`
Output: 2.34 µM (inactive)

Task: Field: GI50 (SNB-19). Entry: `Brc1ccc(-c2ccc(-c3ccc(Br)s3)s2)s1`
Output: > 100 µM (inactive)

###

We begin with a simple list: items and their reported GI50.
System: KM-20L2
Test: NCI tumour cell line growth inhibition, 48 h
Active and inactive are the calls of the source. No stated cut-off is given here; in the data, active = GI50 up to about 1.1 µM and inactive = higher.

Here's what some known entries look like.
>  <compound>
COc1cccc(C2CC(C)=Nc3c(ccc4c3C(=O)c3ccccc3C4=O)N2)c1O (centres undefined)

>  <GI50>
> 100 µM (inactive)

$$$$
>  <compound>
CC1=C2[C@@H](c3ccccc3)C3C=CC2(C=C3C(F)(F)F)N(C(=O)NC2CCCCC2)C1=O (some centres undefined)

>  <GI50>
93.1 µM (inactive)

$$$$

Task: Field: GI50 (KM-20L2). Entry: `O=C(NCCCN1CCN(CCCNC(=O)c2cccc3ccccc23)CC1)c1cccc2ccccc12`
Output: 34 µM (inactive)

Task: Field: GI50 (KM-20L2). Entry: O=C(Nc1cc(C(F)(F)F)ccc1Cl)C(=O)C(C(=O)c1ccc2ccccc2c1)C1OC(=O)c2ccccc21 (centres undefined)
Output: 20.4 µM (inactive)
